Experiment: activity coefficient (dimensionless); of the first substance listed, at infinite dilution; xn = mol fraction of the nth substance listed
Details: 348.15 K; Liquid; Chromatography; x1 = 0
Below, each entry is listed with its recorded activity coefficient.
Please give the numeric answer without any surrounding text.

Before answering, review these 3 worked examples.
[[record]]
molecule = "Cc1cccc(C)c1 [1,3-dimethylbenzene] + CCCCCCn1cc[n+](C)c1.N#C[B-](C#N)(C#N)C#N"
readout_number = 1.44

[[record]]
molecule = "CCOC(C)=O [ethyl acetate] + CCCCCCn1cc[n+](C)c1.N#C[B-](C#N)(C#N)C#N"
readout_number = 0.715

[[record]]
molecule = "CC(C)CC(C)(C)C [2,2,4-trimethylpentane] + CCCCCCn1cc[n+](C)c1.N#C[B-](C#N)(C#N)C#N"
readout_number = 15.7


Here is the next item to consider.
Exam item: GET /values?readout=activity coefficient&item= CCCOCCC [dipropyl ether] + CCCCCCn1cc[n+](C)c1.N#C[B-](C#N)(C#N)C#N
Marked response: 3.74
